# System tested: human ether-à-go-go-related gene (hERG) potassium channel (human);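 further: peak tail current of the secondary pulse compared with the same well before compound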
# Sequence (Q12809 whole entry, looked up): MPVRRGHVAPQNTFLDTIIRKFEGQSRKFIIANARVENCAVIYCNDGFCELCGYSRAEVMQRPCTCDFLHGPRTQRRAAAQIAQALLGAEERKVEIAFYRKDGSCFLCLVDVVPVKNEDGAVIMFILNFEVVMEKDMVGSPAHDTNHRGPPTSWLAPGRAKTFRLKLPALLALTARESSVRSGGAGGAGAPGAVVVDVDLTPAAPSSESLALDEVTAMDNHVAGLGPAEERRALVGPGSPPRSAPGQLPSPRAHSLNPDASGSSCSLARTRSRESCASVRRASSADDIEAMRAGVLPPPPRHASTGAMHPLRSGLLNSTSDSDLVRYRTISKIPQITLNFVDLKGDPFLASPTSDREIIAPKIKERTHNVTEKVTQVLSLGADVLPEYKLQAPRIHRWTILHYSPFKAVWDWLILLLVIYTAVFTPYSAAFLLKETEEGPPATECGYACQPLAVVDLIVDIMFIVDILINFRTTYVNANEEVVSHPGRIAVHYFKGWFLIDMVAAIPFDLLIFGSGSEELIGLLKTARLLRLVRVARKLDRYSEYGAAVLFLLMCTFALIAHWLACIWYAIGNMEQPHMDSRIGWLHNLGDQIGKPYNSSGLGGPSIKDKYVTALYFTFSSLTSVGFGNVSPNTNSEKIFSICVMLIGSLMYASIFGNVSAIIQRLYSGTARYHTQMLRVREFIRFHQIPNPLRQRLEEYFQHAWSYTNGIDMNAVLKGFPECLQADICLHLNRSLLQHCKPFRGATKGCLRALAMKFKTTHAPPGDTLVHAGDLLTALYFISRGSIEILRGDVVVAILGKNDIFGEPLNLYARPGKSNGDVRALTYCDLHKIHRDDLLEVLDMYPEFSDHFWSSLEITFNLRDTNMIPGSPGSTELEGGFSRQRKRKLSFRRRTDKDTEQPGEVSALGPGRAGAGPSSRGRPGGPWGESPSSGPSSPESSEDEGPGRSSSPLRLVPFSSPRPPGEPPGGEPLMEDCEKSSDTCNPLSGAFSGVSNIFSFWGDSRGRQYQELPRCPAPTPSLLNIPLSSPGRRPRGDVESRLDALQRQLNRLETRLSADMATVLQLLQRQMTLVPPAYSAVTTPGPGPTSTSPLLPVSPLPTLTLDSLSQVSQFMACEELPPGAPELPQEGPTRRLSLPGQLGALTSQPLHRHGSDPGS
# Method summary: primary screen, population patch clamp on CHO cells stably expressing hERG; higher = less effect of the substance
Screen size: about 310,000 compounds; about 14,000 (4.5%) showed an effect of 50% or more. Effects have a minus sign here. For the sample, strong results were picked, then their nearest neighbours and some compounds at random.
In this section, each of the molecules is paired with its reported hERG current change (%, negative = inhibition) at 10uM.
Numbers only; they are read as %.

Examples with answers:
INSERT INTO assay_data (molecule, system_tested, u, reported_result) VALUES
  ('O=C(NC(=S)Nc1cccc(-c2ccc(CO)o2)c1)c1cccs1', 'human ether-à-go-go-related gene (hERG) potassium channel (human)', '%', 23.7),
  ('COCCn1c(SCC(=O)Nc2ccc(C(C)=O)cc2)nc2c([nH]c3ccccc32)c1=O', 'human ether-à-go-go-related gene (hERG) potassium channel (human)', '%', 1.97),
  ('CC(=O)Nc1ccc(OS(=O)(=O)c2ccc(Cl)cc2)cc1', 'human ether-à-go-go-related gene (hERG) potassium channel (human)', '%', -24.5),
  ('CC1CCCC/C1=N/Nc1ccc([N+](=O)[O-])cc1[N+](=O)[O-] (stereo not drawn)', 'human ether-à-go-go-related gene (hERG) potassium channel (human)', '%', -1.11),
  ('CCOC(=O)C1(Cc2ccccc2)CCN(Cc2ccc(COC)o2)CC1', 'human ether-à-go-go-related gene (hERG) potassium channel (human)', '%', -19.1),
  ('CC(=O)Nc1ccc(OS(=O)(=O)c2cc(Cl)ccc2C)cc1', 'human ether-à-go-go-related gene (hERG) potassium channel (human)', '%', -6.02),
  ('CCc1ccccc1NC(=O)CC1SCCNC1=O (stereo not drawn)', 'human ether-à-go-go-related gene (hERG) potassium channel (human)', '%', 26.3),
  ('O=C(CSc1ccccc1)NC(=O)NCc1ccccc1', 'human ether-à-go-go-related gene (hERG) potassium channel (human)', '%', 5.87),
  ('CCOC(=O)C1(CCOc2ccccc2)CCN(Cc2ccc(COC)o2)CC1', 'human ether-à-go-go-related gene (hERG) potassium channel (human)', '%', -63.7),
  ('CN(C)c1ccc(-c2nnc(SCC3CCCO3)n2C)cc1 (stereo not drawn)', 'human ether-à-go-go-related gene (hERG) potassium channel (human)', '%', 5.24);

Entry under test: Cc1ccc(CSc2nnc(-c3ccncc3)n2C)cc1 . Its hERG current change (%, negative = inhibition) at 10uM was 4.36

Input Cl.N[C@@H]1C[C@H]1c1ccccc1 . Output hERG current change (%, negative = inhibition) at 10uM: 14

Entry COC(=O)[C@H](CCSC)NC(=O)Nc1ccc(C)cc1 — recorded hERG current change (%, negative = inhibition) at 10uM = 11.6

For reference, reported hERG current change (%, negative = inhibition) at 10uM for Cc1sc(NC(=O)/C=C/c2ccc3c(c2)OCO3)nc1-c1ccccc1 stands at 8.5

What the record says about COc1cc(NC(=O)CSc2nnc3c(C)cc4c(C)ccc(C)c4n23)c(C(=O)O)cc1OC : hERG current change (%, negative = inhibition) at 10uM is 27.1

Entry COc1ccc(/C=N/n2c(-c3cc(C)[nH]n3)n[nH]c2=S)cc1OC ; hERG current change (%, negative = inhibition) at 10uM = 18.6

Per the record, COc1ccc2[nH]c3c(c2c1)CCNC3=O has hERG current change (%, negative = inhibition) at 10uM of 7.33

Value of measured hERG current change (%, negative = inhibition) at 10uM for the entry CCN(C(=O)Cn1nc(C)c([N+](=O)[O-])c1C)C1CCS(=O)(=O)C1 (stereo not drawn) : 24.1
